Target: receptor 5.24 (Carassius auratus)
Construct: The receptor 5.24 full length cDNA detects 1-2 bands in genomic DNA blots; expressed in transfected cells; host or cells: HEK 293 cells expressing SV40 large T antigen (293-TSA)
Sequence (Q9PW88 25-877): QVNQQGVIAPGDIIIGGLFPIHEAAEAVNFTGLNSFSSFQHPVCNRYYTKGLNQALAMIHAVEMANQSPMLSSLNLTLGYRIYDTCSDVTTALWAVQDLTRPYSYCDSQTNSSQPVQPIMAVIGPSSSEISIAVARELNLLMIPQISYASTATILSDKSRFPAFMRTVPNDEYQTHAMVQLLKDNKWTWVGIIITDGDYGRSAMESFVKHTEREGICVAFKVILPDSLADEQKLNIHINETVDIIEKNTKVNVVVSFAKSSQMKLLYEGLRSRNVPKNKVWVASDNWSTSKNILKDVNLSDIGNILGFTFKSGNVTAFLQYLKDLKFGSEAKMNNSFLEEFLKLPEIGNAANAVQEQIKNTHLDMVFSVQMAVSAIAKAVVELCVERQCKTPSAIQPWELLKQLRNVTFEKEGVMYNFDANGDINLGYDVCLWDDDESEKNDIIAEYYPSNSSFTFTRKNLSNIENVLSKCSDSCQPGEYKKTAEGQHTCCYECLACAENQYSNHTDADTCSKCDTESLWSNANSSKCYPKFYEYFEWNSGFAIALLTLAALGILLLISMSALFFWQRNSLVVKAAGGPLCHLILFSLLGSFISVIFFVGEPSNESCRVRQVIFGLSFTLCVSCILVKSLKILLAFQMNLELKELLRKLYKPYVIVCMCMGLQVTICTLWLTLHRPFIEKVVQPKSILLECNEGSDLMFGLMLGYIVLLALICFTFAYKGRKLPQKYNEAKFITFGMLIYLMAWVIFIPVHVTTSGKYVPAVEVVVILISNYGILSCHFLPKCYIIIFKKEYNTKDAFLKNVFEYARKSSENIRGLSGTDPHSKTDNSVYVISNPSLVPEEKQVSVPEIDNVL
Assay: 3H-L-arginine saturation binding to membranes of receptor 5.24-expressing HEK 293 cells
Set-up: species or system goldfish
Conditions: range of n=4 determinations; read-out: dissociation constant (Kd), range
pKd: −log10 of the molar value.
Endpoint Name: pKd

So what's the measured pKd for this one? N=C(N)NCCC[C@H](N)C(=O)O [L-Arginine] 6.68 to 7.28

* * *

Molecular target: receptor 5.24 (Carassius auratus)
Construct: The receptor 5.24 full length cDNA detects 1-2 bands in genomic DNA blots; expressed in transfected cells; host or cells: HEK 293 cells expressing SV40 large T antigen (293-TSA)
Test: biochemical
Format: binding
Details: 3H-arginine displacement; read-out: Ki
Text: Structure-Activity Properties of Compounds Interacting with the Cloned Goldfish Amino Acid Odorant Receptor. An understanding of how odorant receptors are used to encode olfactory information requires a characterization of the odorant specificities of individual receptor types. […] Mammalian Cell Culture and DNA Transfections. […] Colonies showing high levels of EGFP fluorescence (as judged by epifluorescence microscopy) were picked, expanded, and screened for 3H-L-arginine binding (see below). […]
pKi: −log10 of the molar value.
Parameter pKi: see the listing below.

// solved cases for pKi follow
NCCC(=O)N[C@@H](Cc1cnc[nH]1)C(=O)O [Carnosine]	< 3.00
NCCS(=O)(=O)O [Taurine]	< 3.00
NCCCCCN [Cadaverine]	< 3.00

# input for lookup
So what's the measured pKi for this one? NCCC[C@H](N)C(=O)O [L-Ornithine] 6.00

Reference source: patent US6410249B1
